Some compounds, each annotated with its measured MIC.
Test system: E. Coli
Respond with the bare value in µg/mL.

# compound, unit of measurement, val
records = [
    ("COC(=O)CCC(C)[C@H]1CCC2C3CC[C@H]4C[C@H](NCCCNCCCCNCCCN)CC[C@]4(C)C3CC[C@@]21C (stereo partly drawn) [drawing 74]", "µg/mL", 32),
]

Which measured MIC belongs to COC(=O)CCC(C)[C@H]1CCC2C3C(CC[C@@]21C)[C@@]1(C)CC[C@@H](NCCN)C[C@H]1C[C@H]3O (stereo partly drawn) [drawing 59] , tested on E. Coli?
16

Request - read-out MIC | tested on E. Coli | compound C[C@H](CCC(=O)O)[C@H]1CC[C@H]2[C@@H]3[C@H](O)C[C@@H]4C[C@@H](NCCCNCCCCNCCCN)CC[C@]4(C)[C@H]3CC[C@]12C [drawing 62]
256

---

System: chick embryo
assay comment: Chick embryo diss. assay (Table II)
Format: in vivo
// Minimum Effective Concentration, chick embryo diss. assay lookup, one value per entry

Study these solved cases before continuing.
# compound, val
data = [
    ("CC(CCCOS(=O)(=O)O)[C@H]1CCC2C3CC[C@H]4C[C@@H](NCCCNCCCCN)CC[C@]4(C)C3CC[C@@]21C (stereo partly drawn)", "> 10 µg"),
    ("COC(=O)CCC(C)[C@H]1CCC2C3C(CC[C@@]21C)[C@@]1(C)CC[C@H](NCCN)C[C@H]1C[C@H]3O (stereo partly drawn) [drawing 92]", "> 1 µg"),
    ("COC(=O)CCC(C)[C@H]1CCC2C3C(CC[C@@]21C)[C@@]1(C)CCC(NCCCNCCCCNCCCN)C[C@@H]1C[C@H]3O (stereo partly drawn)", "> 10 µg"),
    ("COC(=O)CCC(C)[C@H]1CCC2C3C(CC[C@@]21C)[C@@]1(C)CC[C@H](NCCCNCCCCNCCCN)C[C@H]1C[C@H]3O (stereo partly drawn) [drawing 109]", "> 1 µg"),
    ("CC(CCC(=O)O)[C@H]1CCC2C3CC[C@H]4C[C@@H](NCCCNCCCCN)CC[C@]4(C)C3CC[C@@]21C (stereo partly drawn)", "0.001 µg"),
]

Now for the compound whose Minimum Effective Concentration, chick embryo diss. assay we want.
Any idea what Minimum Effective Concentration, chick embryo diss. assay was measured for CC(CCC(CO)(OS(=O)(=O)O)C(C)C)[C@H]1CCC2C3C(CC[C@@]21C)[C@@]1(C)CC[C@H](NCCCNCCCCN)C[C@@H]1C[C@H]3O (stereo partly drawn) ?
> 1 µg

---

// each record: one item and its MIC for E. Coli

# compound, MIC
data = [
    ("CC(C)CCCC(C)[C@H]1CCC2C3C(CC[C@@]21C)[C@@]1(C)CC[C@H](N)C[C@@H]1C[C@H]3O (stereo partly shown) [drawing 55]", "> 256 µg/mL"),
    ("COC(=O)CCC(C)[C@H]1CCC2C3CC[C@@H]4C[C@H](NCCCNCCCCNCCCN)CC[C@]4(C)C3C[C@H](O)[C@@]21C (stereo partly shown) [drawing 72]", "16 µg/mL"),
    ("COC(=O)CCC(C)[C@H]1CCC2C3C[C@@H](O)[C@H]4C[C@H](NCCCNCCCCNCCCN)CC[C@]4(C)C3CC[C@@]21C (stereo partly shown)", "32 µg/mL"),
]

We next turn to a different compound, shown below.
# lookup: MIC of COC(=O)CCC(C)[C@H]1CCC2C3C[C@@H](O)[C@H]4C[C@H](NCCN)CC[C@]4(C)C3CC[C@@]21C (stereo partly shown) [drawing 67]
32 to 64 µg/mL
